Measured on: T1, IFN-αWA (human, UniProt P05015 24-189)
T1 construct: Recombinant, HEK293; also called IFN-α16
Test summary: ProteOn SPR, cell supernatant;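 note: each binding measurement used just a single antigen concentration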
Property label: pKd
Schema: pKd number; meaning minus log10 of the concentration expressed in molar units.

Worked cases, answers included:
**Query** Kindly indicate its recorded pKd. Item: IFWM3397 (antibody, IgG1, V domains shown, mAb; IgG1/kappa said of the parent and of selected mAbs; also called IFWB3132) VH: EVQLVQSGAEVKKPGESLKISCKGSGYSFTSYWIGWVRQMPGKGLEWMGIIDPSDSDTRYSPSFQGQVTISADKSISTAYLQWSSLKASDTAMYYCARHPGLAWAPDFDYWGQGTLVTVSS VL: DIQMTQSPSSLSASVGDRVTITCRASQSITGFLNWYQQKPGKAPKLLIYAASSLQSGVPSRFSGSGSGTDFTLTISSLQPEDFATYYCQQSHDFPLTFGQGTKVEIK
**Result** 10.21

**Query** Kindly indicate its recorded pKd. Item: IFWM3384 (antibody, IgG1, V domains shown, mAb; IgG1/kappa said of the parent and of selected mAbs; also called IFWB3119) VH: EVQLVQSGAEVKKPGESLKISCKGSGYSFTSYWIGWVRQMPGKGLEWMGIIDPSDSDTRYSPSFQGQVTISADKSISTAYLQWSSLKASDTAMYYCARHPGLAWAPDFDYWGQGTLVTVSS VL: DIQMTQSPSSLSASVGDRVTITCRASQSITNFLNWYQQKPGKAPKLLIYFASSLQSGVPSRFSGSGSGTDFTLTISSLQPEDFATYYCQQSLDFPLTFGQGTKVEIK
**Result** 10.77

***
**Query** Kindly indicate its recorded pKd. Item: IFWM3420 (antibody, IgG1, V domains shown, mAb; IgG1/kappa said of the parent and of selected mAbs; also called IFWB3155) VH: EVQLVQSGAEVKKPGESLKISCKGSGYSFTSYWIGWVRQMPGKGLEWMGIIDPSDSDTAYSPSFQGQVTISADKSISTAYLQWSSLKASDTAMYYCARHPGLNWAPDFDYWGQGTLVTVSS VL: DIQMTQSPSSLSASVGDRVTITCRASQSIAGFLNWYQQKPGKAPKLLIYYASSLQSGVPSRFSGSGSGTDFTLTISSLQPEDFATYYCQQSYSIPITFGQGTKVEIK
**Result** 9.91

**Query** Kindly indicate its recorded pKd. Item: IFWM3377 (antibody, IgG1, V domains shown, mAb; IgG1/kappa said of the parent and of selected mAbs; also called IFWB3112) VH: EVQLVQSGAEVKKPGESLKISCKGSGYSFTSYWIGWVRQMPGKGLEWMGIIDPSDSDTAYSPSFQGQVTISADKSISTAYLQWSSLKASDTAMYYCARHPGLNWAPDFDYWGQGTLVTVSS VL: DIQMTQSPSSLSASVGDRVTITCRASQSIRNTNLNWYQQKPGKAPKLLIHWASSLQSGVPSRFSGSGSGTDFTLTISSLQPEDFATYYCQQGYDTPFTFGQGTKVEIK
**Result** 9.92

**Query** Kindly indicate its recorded pKd. Item: IFWM3387 (antibody, IgG1, V domains shown, mAb; IgG1/kappa said of the parent and of selected mAbs; also called IFWB3122) VH: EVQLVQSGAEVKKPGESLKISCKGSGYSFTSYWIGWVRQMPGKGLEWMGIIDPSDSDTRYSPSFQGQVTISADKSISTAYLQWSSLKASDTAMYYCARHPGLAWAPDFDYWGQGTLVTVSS VL: DIQMTQSPSSLSASVGDRVTITCRASQSIGGFLNWYQQKPGKAPKLLIYFASSLQSGVPSRFSGSGSGTDFTLTISSLQPEDFATYYCQQSYSLPITFGQGTKVEIK
**Result** 10.16
